tested on: SNB-78 CNS; assay: NCI tumour cell line growth inhibition, 48 h
Consider the following molecules; for each one, report its TGI.

Solved cases below.
MOLECULE	TARGET_UNDER_TEST	TGI
O=C(Nc1ccc(Cl)c(Cl)c1)C1C(=O)N(c2ccc(Cl)c(Cl)c2)C(=O)/C1=N\O (centres undefined)	SNB-78 CNS	> 100 µM
N/C(=N\N=C/c1cc([N+](=O)[O-])cc([N+](=O)[O-])c1O)NO	SNB-78 CNS	> 100 µM
Nc1ncnc2sc(Nc3ccccc3)nc12	SNB-78 CNS	> 100 µM

Now consider a different molecule.
IN: Dear colleague, I am looking for the recorded TGI of the following molecule: "CN(C)CCNC(=O)c1cccc2cc3ccc4ccccc4c3nc12"
OUT: 12.5 µM
